Values from the nanobody polyreactivity screen of Harvey et al. (2022)

assay: yeast display, Sf9 membrane polyspecificity reagent, FACS + sequencing; frameworks hold sequencing errors
MEASUREMENT_KIND: polyreactivity (PSR sort gate)

These solved cases illustrate the format of a correct answer.
QVQLVESAGGLVQAGGSLRLSCAASGYIFYFYAMGWYRQAPGKERELVAAITSVGSTKYADSVKGRFTISRDNAKNTVYLQMNSLKPEDTAVYYCAARSWSGYGLYNYWGHGTQVTVSS ... high polyreactivity
QVQLVESGGGLDQAGGSLRLSCAASGRTFGKYAMGWYRQAPGKERELVAAITGGGGTKYADSVKGRFTISRDNAKNTFYLQMNSLKPEDTAVYYCAAASGSRRHGFWGQGTQVTVSS ... high polyreactivity
QVQLVESGGGLVQAGGSLRVSCAASGFIIEVNSMAWYRQAPGKERELVARIDWSGGSTYYADSVKGRFTISRDNAKNTVFLQMNSLIPEDTAVYYCAVVASRSHTETPEYDYWGQGTQVTVSS ... low polyreactivity
QVQLVESGGGLVQAGGSLRLSCAASGRTFPYYAMGWYRQAPGKERELVAAISSSGGRTYYADSVKGRFTISRDNAKNTVYLQMNSLKREDTAVYYCNVDAWYPYQGFLVGYYYWGQGTQVTVSS ... low polyreactivity
QVHQQESGGGLMQAGGSQRLSCAASGSISYYSDMGRYRQAPGKEREFVAGIGYGTTTNYADSVKGRFTTSRDNAKNTVYLQMISMKPEDNAVYYCAAYQGNGYEFYYWGQGTQVTVRS ... low polyreactivity
QVQLVESGGGLVQAGGSLRLSCAASGSIFALYAIGWYRQAPGKEREFVAAISYNGGSTYYADSVKGRFTISRDNAKNTVYLQMNSLKPEDTAVYYCNDVYYDSGVVGYYYWGQGTQVTVSS ... high polyreactivity

Fill in the blank: the reported polyreactivity (PSR sort gate) of QVQLVESGGGLVQAGGSLRLSCAASGLIFATYAMGWSRQAPGKERELVAAISYRGSRTYYADSVKGRFTISRDNAMTTVYLQMNILKPEDTGVYYCAAVYRTYGIGPNNYWGQGTQVTVSS is ____. high polyreactivity

Please look up its polyreactivity (PSR sort gate): QVQLVESGGGLVQAGVSLRLSCAASGSIFTQYAMGWSRQAPGKERELVAAISWSGARTYYADSVKGRFTISRDNAKNTVYIQMNSLKPEDTAVYYWAADIIRPVTVDYWGQGTQVTVSS high polyreactivity

Consider the sequence QVQLVESGGGLVQAGGSLRLSCAASGFTFYSNAMGWYRQAPGKERELVAAINWGGGSTYYADSVKGRFTISRDNAKNTVYLQMNSLKPEDTAVYYCAAEPIWEYWNGVSYAYDYWGQGTQVTVSS and give its measured polyreactivity (PSR sort gate). low polyreactivity
